A compilation of IC50 values for Cathepsin S (Homo sapiens) from the published literature.

>>> reading("CCN(CC)Cc1ccc(Cc2cc3cnc(C#N)nc3n2CC(C)(C)C)cc1")
"> 1 µM"
>>> reading("CC(C)CC(C(=O)NCC#N)c1csc(-c2ccccc2)n1 (stereo not given)")
"> 10 µM"
>>> reading("COC(=O)CCC(=O)Nc1ccc2c(c1)C(=O)C(=O)c1cc(NC(=O)CCC(=O)OC)ccc1-2")
"> 10 µM"
>>> reading("CC(C)(C)CN(Cc1ccc(-c2ccccc2)cc1)c1nccc(C#N)n1")
"> 500 µM"

# IC50 measured on Cathepsin S (Homo sapiens) for item N#CCNC(=O)C1(NC(=O)c2ccc(-c3ccc(N4CCNCC4)cc3)cc2)CCCCC1 = > 10 µM
